ASSAY TARGET: α3β4 nAChR (Rattus norvegicus, UniProt P04757+P12392)
Sequence (P04757 26-499): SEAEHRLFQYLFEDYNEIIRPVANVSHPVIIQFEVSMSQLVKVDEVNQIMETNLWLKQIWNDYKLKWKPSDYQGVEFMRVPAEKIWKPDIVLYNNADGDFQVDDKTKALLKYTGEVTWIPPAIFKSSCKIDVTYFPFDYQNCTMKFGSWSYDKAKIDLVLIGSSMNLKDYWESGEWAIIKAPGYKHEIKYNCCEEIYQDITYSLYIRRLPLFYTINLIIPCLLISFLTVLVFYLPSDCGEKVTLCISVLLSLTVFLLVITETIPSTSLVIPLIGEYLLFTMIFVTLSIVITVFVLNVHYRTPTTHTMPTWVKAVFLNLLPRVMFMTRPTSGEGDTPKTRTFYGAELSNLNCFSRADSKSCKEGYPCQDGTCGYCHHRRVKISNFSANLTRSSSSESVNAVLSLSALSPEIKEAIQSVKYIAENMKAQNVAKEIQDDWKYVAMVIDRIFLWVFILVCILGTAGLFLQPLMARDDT
Sequence (P12392 21-495): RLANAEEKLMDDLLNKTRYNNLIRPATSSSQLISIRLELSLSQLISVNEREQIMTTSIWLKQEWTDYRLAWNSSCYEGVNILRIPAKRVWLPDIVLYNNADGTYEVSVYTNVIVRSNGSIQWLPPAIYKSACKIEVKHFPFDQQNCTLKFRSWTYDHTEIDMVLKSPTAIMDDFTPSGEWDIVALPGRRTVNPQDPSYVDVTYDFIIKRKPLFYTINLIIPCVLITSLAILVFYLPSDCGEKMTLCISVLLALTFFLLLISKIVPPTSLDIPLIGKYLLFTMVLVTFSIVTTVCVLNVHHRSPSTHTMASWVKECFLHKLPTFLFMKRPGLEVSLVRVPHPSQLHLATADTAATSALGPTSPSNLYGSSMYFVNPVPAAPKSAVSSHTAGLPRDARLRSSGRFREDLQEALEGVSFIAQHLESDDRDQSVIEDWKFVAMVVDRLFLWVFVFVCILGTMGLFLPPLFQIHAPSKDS
ASSAY INFO: biochemical
Format: binding
Design: host or cells: HEK293 (KXα3β4R2)
STATED CONDITIONS: α3β4 nAChR, NLC
Entry flag: MET if log K chromatographic equilibrium constant reaches 7 M^−1; NOT MET if it does not.

Data request: Answer whether log K chromatographic equilibrium constant of COc1ccc([C@@H]2Sc3ccccc3N(CCN(C)C)C(=O)[C@@H]2OC(C)=O)cc1 [dilthiazem] is greater than or equal to 7 M^−1.
Data returned: MET

Data request: Answer whether log K chromatographic equilibrium constant of COc1ccc2c(c1)[C@@]13CCCC[C@H]1[C@@H](C2)NCC3 [3 MM] is greater than or equal to 7 M^−1.
Data returned: MET

Data request: Answer whether log K chromatographic equilibrium constant of CNCCCC(C#N)(c1ccc(OC)c(OC)c1)C(C)C [Compound D-617] is greater than or equal to 7 M^−1.
Data returned: NOT MET

Data request: Answer whether log K chromatographic equilibrium constant of COc1ccc(C(C#N)(CCCN)C(C)C)cc1OC [Compound D-620] is greater than or equal to 7 M^−1.
Data returned: NOT MET

Data request: Answer whether log K chromatographic equilibrium constant of COc1ccc(CCN(C)CCCC(C#N)(c2cc(OC)c(OC)c(OC)c2)C(C)C)cc1OC (centres unmarked) [galapamil] is greater than or equal to 7 M^−1.
Data returned: MET

* * *

So I've got a bunch of compounds here, and I need their Kd values.
ASSAY TARGET: α3β4 nAChR (Rattus norvegicus, UniProt P04757+P12392)
ASSAY INFO: biochemical
Assay type: binding
Set-up: host or cells: HEK293 (KXα3β4R2)
STATED CONDITIONS: α3β4 nAChR, NLC; read-out: log K chromatographic equilibrium constant (converted)
Quick note: give the figure in nM, leave out the unit.

Data request: What Kd appears in the records for this compound with α3β4 nAChR (Rattus norvegicus, UniProt P04757+P12392)? CN1CC[C@@]23CCCC[C@@H]2[C@@H]1Cc1ccc(O)cc13
Data returned: 112

Data request: What Kd appears in the records for this compound with α3β4 nAChR (Rattus norvegicus, UniProt P04757+P12392)? CCC(=O)C(CC(C)N(C)C)(c1ccccc1)c1ccccc1 (stereo not shown)
Data returned: 87.1

Data request: What Kd appears in the records for this compound with α3β4 nAChR (Rattus norvegicus, UniProt P04757+P12392)? CCCCC1C(=O)N(c2ccccc2)N(c2ccccc2)C1=O
Data returned: 2570

Data request: What Kd appears in the records for this compound with α3β4 nAChR (Rattus norvegicus, UniProt P04757+P12392)? CN[C@@H](C)Cc1ccccc1
Data returned: 234

Data request: What Kd appears in the records for this compound with α3β4 nAChR (Rattus norvegicus, UniProt P04757+P12392)? CC[n+]1c(-c2ccccc2)c2cc(N)ccc2c2ccc(N)cc21
Data returned: 5.01

Data request: What Kd appears in the records for this compound with α3β4 nAChR (Rattus norvegicus, UniProt P04757+P12392)? CNC1(c2ccccc2Cl)CCCCC1=O (stereo not shown)
Data returned: 224

Data request: What Kd appears in the records for this compound with α3β4 nAChR (Rattus norvegicus, UniProt P04757+P12392)? NC12CC3CC(CC(C3)C1)C2
Data returned: 219

Data request: What Kd appears in the records for this compound with α3β4 nAChR (Rattus norvegicus, UniProt P04757+P12392)? COc1ccc(C(=O)O)cc1OC
Data returned: 1860

Data request: What Kd appears in the records for this compound with α3β4 nAChR (Rattus norvegicus, UniProt P04757+P12392)? c1ccc(C2(N3CCCCC3)CCCCC2)cc1
Data returned: 115

Data request: What Kd appears in the records for this compound with α3β4 nAChR (Rattus norvegicus, UniProt P04757+P12392)? CC(NC(C)(C)C)C(=O)c1cccc(Cl)c1 (stereo not shown)
Data returned: 178

Data request: What Kd appears in the records for this compound with α3β4 nAChR (Rattus norvegicus, UniProt P04757+P12392)? COc1ccc(CC2c3cc(OC)c(OC)cc3CCN2C)cc1OC (stereo not shown)
Data returned: 87.1

Data request: What Kd appears in the records for this compound with α3β4 nAChR (Rattus norvegicus, UniProt P04757+P12392)? CC12CC3CC(C)(C1)CC(N)(C3)C2 [memantine]
Data returned: 182

Data request: What Kd appears in the records for this compound with α3β4 nAChR (Rattus norvegicus, UniProt P04757+P12392)? C[C@]12N[C@H](Cc3ccccc31)c1ccccc12
Data returned: 129

Data request: What Kd appears in the records for this compound with α3β4 nAChR (Rattus norvegicus, UniProt P04757+P12392)? COc1ccc2c(c1)[C@]13CCCC[C@@H]1[C@H](C2)N(C)CC3
Data returned: 42.7

Data request: What Kd appears in the records for this compound with α3β4 nAChR (Rattus norvegicus, UniProt P04757+P12392)? COc1ccc(CCNCCCC(C#N)(c2ccc(OC)c(OC)c2)C(C)C)cc1OC (single isomer, unassigned) [nor-verapamil-R, nor-verapamil]
Data returned: 36.3

Data request: What Kd appears in the records for this compound with α3β4 nAChR (Rattus norvegicus, UniProt P04757+P12392)? CC(=O)Nc1ccc(O)cc1
Data returned: 2040

Data request: What Kd appears in the records for this compound with α3β4 nAChR (Rattus norvegicus, UniProt P04757+P12392)? COc1ccc2c(c1)[C@@]13CCCC[C@H]1[C@@H](C2)N(C)CC3
Data returned: 83.2

Data request: What Kd appears in the records for this compound with α3β4 nAChR (Rattus norvegicus, UniProt P04757+P12392)? CC(=O)Nc1ccccc1 [acetanilide]
Data returned: 3090

Data request: What Kd appears in the records for this compound with α3β4 nAChR (Rattus norvegicus, UniProt P04757+P12392)? COc1ccc(CCNCCCC(C#N)(c2ccc(OC)c(OC)c2)C(C)C)cc1OC (single isomer, unassigned) [nor-verapamil-S, nor-verapamil]
Data returned: 39.8

* * *

ASSAY TARGET: α3β4 nAChR (Rattus norvegicus, UniProt P04757+P12392)
ASSAY INFO: biochemical
Type: binding
Set-up: host or cells: HEK293 (KXα3β4R2)
STATED CONDITIONS: α3β4 nAChR, NLC; read-out: koff dissociation constant rate
So I've got a bunch of compounds here, and I need their log10(koff) values.
// do not treat as linear: log10 of koff, unit s⁻¹

Data request: Item under review: CC(=O)Nc1ccccc1 [acetanilide] . Reported log10(koff)?
Data returned: 1.41

Data request: Item under review: COc1ccc(CCNCCCC(C#N)(c2ccc(OC)c(OC)c2)C(C)C)cc1OC (single isomer, unassigned) . Reported log10(koff)?
Data returned: -0.24

Data request: Item under review: NC12CC3CC(CC(C3)C1)C2 . Reported log10(koff)?
Data returned: 0.83

Data request: Item under review: CN1CC[C@@]23CCCC[C@@H]2[C@@H]1Cc1ccc(O)cc13 . Reported log10(koff)?
Data returned: 0.36

Data request: Item under review: CC(=O)Nc1ccc(O)cc1 . Reported log10(koff)?
Data returned: 1.24

Data request: Item under review: CCCCC1C(=O)N(c2ccccc2)N(c2ccccc2)C1=O . Reported log10(koff)?
Data returned: 1.35

Data request: Item under review: c1ccc(C2(N3CCCCC3)CCCCC2)cc1 . Reported log10(koff)?
Data returned: 0.43

Data request: Item under review: COc1ccc(CC2c3cc(OC)c(OC)cc3CCN2C)cc1OC (stereo not drawn) . Reported log10(koff)?
Data returned: 0.34

Data request: Item under review: CC12CC3CC(C)(C1)CC(N)(C3)C2 [memantine] . Reported log10(koff)?
Data returned: 0.54

Data request: Item under review: CC(NC(C)(C)C)C(=O)c1cccc(Cl)c1 (stereo not drawn) . Reported log10(koff)?
Data returned: 0.71

Data request: Item under review: CN[C@@H](C)Cc1ccccc1 . Reported log10(koff)?
Data returned: 0.83

Data request: Item under review: COc1ccc(C(=O)O)cc1OC . Reported log10(koff)?
Data returned: 1.26

Data request: Item under review: CCC(=O)C(CC(C)N(C)C)(c1ccccc1)c1ccccc1 (stereo not drawn) . Reported log10(koff)?
Data returned: 0.14

Data request: Item under review: COc1ccc2c(c1)[C@@]13CCCC[C@H]1[C@@H](C2)N(C)CC3 . Reported log10(koff)?
Data returned: 0.19

Data request: Item under review: CC[n+]1c(-c2ccccc2)c2cc(N)ccc2c2ccc(N)cc21 . Reported log10(koff)?
Data returned: -0.74

Data request: Item under review: COc1ccc2c(c1)[C@]13CCCC[C@@H]1[C@H](C2)N(C)CC3 . Reported log10(koff)?
Data returned: 0.00

Data request: Item under review: C[C@]12N[C@H](Cc3ccccc31)c1ccccc12 . Reported log10(koff)?
Data returned: 0.54

Data request: Item under review: CNC1(c2ccccc2Cl)CCCCC1=O (stereo not drawn) . Reported log10(koff)?
Data returned: 0.93
